The compounds listed here are annotated with their pIC50.
# testSystem: SCD-1 (Homo sapiens)
# Construct: 50 μg of protein from a HepG2 cell P2 pellet; endogenous in cells; host or cells: HepG2 cells (P2 pellet)
# Sequence (O00767 1-359): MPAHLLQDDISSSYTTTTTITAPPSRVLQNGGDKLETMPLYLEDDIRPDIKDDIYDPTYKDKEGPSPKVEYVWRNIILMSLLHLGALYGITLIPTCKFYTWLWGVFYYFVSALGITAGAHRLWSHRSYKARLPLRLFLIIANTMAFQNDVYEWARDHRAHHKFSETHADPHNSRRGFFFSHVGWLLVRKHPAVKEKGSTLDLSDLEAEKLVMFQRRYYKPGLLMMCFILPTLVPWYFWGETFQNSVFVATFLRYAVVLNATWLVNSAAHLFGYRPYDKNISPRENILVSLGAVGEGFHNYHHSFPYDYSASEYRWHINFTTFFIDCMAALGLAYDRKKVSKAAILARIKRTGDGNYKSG
# test: Stearoyl-CoA desaturase assay (HepG2 cell P2 pellet)
# Type: biochemical
# details: Table 3, compounds of formula (Ic); protein from HepG2 cell P2 pellet, 20 μM stearoyl-CoA, 15 min at 25° C.; read-out: Ave IC50
pIC50: −log10 of the molar value.

// worked examples, pIC50 included
CC(C)Oc1ccc(CN2CCC3(CCN(c4ccc(C(N)=O)nn4)CC3)Oc3ccccc32)cc1
7.31 to 9.30
CC(C)CNC(=O)c1ccc(N2CCC3(CC2)CCN(Cc2cccc(C(F)(F)F)c2)c2ccccc2O3)nn1
6.30 to 7.30
CC(C)CCNC(=O)c1ccc(N2CCC3(CC2)CCN(Cc2cccc(C(F)(F)F)c2)c2ccccc2O3)nn1
6.30 to 7.30

Ask | Need pIC50 of O=C(NCCC1CC1)c1ccc(N2CCC3(CC2)CCN(Cc2ccc(Oc4ccccc4)cc2)c2ccccc2O3)nn1 , thanks.
Reply | 7.31 to 9.30

Ask | Need pIC50 of O=C(NCC1CC1)c1ccc(N2CCC3(CC2)CCN(Cc2cccc(C(F)(F)F)c2)c2ccccc2O3)nn1 , thanks.
Reply | 6.30 to 7.30

Ask | Need pIC50 of O=C(NCCCO)c1ccc(N2CCC3(CC2)CCN(Cc2cccc(C(F)(F)F)c2)c2ccccc2O3)nn1 , thanks.
Reply | 6.30 to 7.30

Ask | Need pIC50 of O=C(NCCC1CC1)c1ccc(N2CCC3(CC2)CCN(Cc2cccc(C(F)(F)F)c2)c2ccccc2O3)nc1 , thanks.
Reply | 7.31 to 9.30

Ask | Need pIC50 of O=C(NCCC1CC1)c1ccc(N2CCC3(CC2)CCN(Cc2cc4ccccc4o2)c2ccccc2O3)nn1 , thanks.
Reply | 7.31 to 9.30

Ask | Need pIC50 of CCc1ccc(CN2CCC3(CCN(c4ccc(C(=O)NCCC5CC5)cn4)CC3)Oc3ccccc32)cc1 , thanks.
Reply | 6.30 to 7.30

Ask | Need pIC50 of COC(=O)CCNC(=O)c1ccc(N2CCC3(CC2)CCN(Cc2cccc(C(F)(F)F)c2)c2ccccc2O3)nn1 , thanks.
Reply | 7.31 to 9.30

Ask | Need pIC50 of O=C(NCCc1ccncc1)c1ccc(N2CCC3(CC2)CCN(Cc2cccc(C(F)(F)F)c2)c2cccc(F)c2O3)nn1 , thanks.
Reply | 7.31 to 9.30

Ask | Need pIC50 of O=C(NCCc1ccccc1)c1ccc(N2CCC3(CC2)CCN(Cc2cccc(C(F)(F)F)c2)c2ccccc2O3)nn1 , thanks.
Reply | 7.31 to 9.30

Ask | Need pIC50 of CCCCNC(=O)c1ccc(N2CCC3(CC2)CCN(Cc2cccc(C(F)(F)F)c2)c2ccccc2O3)nn1 , thanks.
Reply | 7.31 to 9.30

Ask | Need pIC50 of CC(C)c1ccc(CN2CCC3(CCN(c4ccc(C(=O)NCCC5CC5)nn4)CC3)Oc3ccccc32)cc1 , thanks.
Reply | 7.31 to 9.30

Ask | Need pIC50 of COC(=O)CCNC(=O)c1ccc(N2CCC3(CC2)CCN(Cc2cccc(C(F)(F)F)c2)c2cccc(F)c2O3)nn1 , thanks.
Reply | 7.31 to 9.30

====

# testSystem: SCD-1 (Homo sapiens, UniProt O00767)
# Construct: 50 μg of protein from a HepG2 cell P2 pellet; endogenous in cells; host or cells: HepG2 cells (P2 pellet)
# test: Stearoyl-CoA desaturase assay (HepG2 cell P2 pellet)
# Type: biochemical
# details: Table 2, compounds of formula (Ib); protein from HepG2 cell P2 pellet, 20 μM stearoyl-CoA, 15 min at 25° C.; read-out: Ave IC50
# Protocol: Stearoyl-CoA desaturase assays were performed in according to Talamo and Bloch. […] Assays were run in triplicate in 100-μl volumes of 100 mM TrisHCl, pH 7.3, containing 20 μM stearoyl-CoA, 2 mM β-NADH, and 50 μg of protein from a HepG2 cell P2 pellet. Since SCD-1 is the only isoform of SCD expressed in these cells, the assay is specific for SCD-1 with these cells as the source of enzyme. […]
observable: IC50

Ask | Need IC50 of CCNC(=O)c1cnc(N2CCC3(CC2)CCN(Cc2ccc(C(C)(C)C)cc2)c2ccccc2O3)s1 , thanks.
Reply | 0.5 to 49 nM

====

The compounds listed here are annotated with their pIC50.
# testSystem: SCD-1 (Homo sapiens, UniProt O00767)
# Construct: 50 μg of protein from a HepG2 cell P2 pellet; endogenous in cells; host or cells: HepG2 cells (P2 pellet)
# test: Stearoyl-CoA desaturase assay (HepG2 cell P2 pellet)
# Assay type: biochemical
# details: Table 3, compounds of formula (Ic); protein from HepG2 cell P2 pellet, 20 μM stearoyl-CoA, 15 min at 25° C.; read-out: Ave IC50
pIC50: −log10 of the molar value.

// worked examples, pIC50 included
COC(=O)c1ccc(N2CCC3(CC2)CCN(Cc2ccc(C(C)(C)C)cc2)c2ccccc2O3)nn1
5.00 to 6.30
O=C(NCCc1ccncc1)c1ccc(N2CCC3(CC2)CCN(Cc2cccc(C(F)(F)F)c2)c2ccccc2O3)nn1
7.31 to 9.30
CC(C)Oc1ccc(CN2CCC3(CCN(c4ccc(C(=O)NCCC5CC5)nn4)CC3)Oc3ccccc32)cc1
7.31 to 9.30

Ask | Need pIC50 of O=C(NCCC1CC1)c1ccc(N2CCC3(CC2)CCN(Cc2cccc(C(F)(F)F)c2)c2ccccc2O3)nn1 , thanks.
Reply | 7.31 to 9.30

Ask | Need pIC50 of CC(C)(C)c1ccc(CN2CCC3(CCN(c4ccc(C(=O)NCCc5ccncc5)nn4)CC3)Oc3c(F)cccc32)cc1 , thanks.
Reply | 7.31 to 9.30

Ask | Need pIC50 of CC(C)c1ccc(CN2CCC3(CCN(c4ccc(C(N)=O)nn4)CC3)Oc3ccccc32)cc1 , thanks.
Reply | 7.31 to 9.30

====

# testSystem: SCD-1 (Homo sapiens)
# Construct: 50 μg of protein from a HepG2 cell P2 pellet; endogenous in cells; host or cells: HepG2 cells (P2 pellet)
# Sequence (O00767 1-359): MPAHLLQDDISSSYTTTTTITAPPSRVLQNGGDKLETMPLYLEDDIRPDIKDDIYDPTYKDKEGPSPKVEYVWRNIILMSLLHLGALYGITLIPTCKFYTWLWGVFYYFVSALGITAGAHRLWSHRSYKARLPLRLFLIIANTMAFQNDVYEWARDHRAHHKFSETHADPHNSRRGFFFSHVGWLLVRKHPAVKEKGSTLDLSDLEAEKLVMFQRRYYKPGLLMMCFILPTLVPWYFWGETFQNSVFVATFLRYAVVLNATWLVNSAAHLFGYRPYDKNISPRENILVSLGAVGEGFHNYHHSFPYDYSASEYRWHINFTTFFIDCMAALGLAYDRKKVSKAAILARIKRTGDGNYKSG
# test: Stearoyl-CoA desaturase assay (HepG2 cell P2 pellet)
# Format: biochemical
# details: Table 2, compounds of formula (Ib); protein from HepG2 cell P2 pellet, 20 μM stearoyl-CoA, 15 min at 25° C.; read-out: Ave IC50
pIC50: −log10 of the molar value.
observable: pIC50

// worked examples, pIC50 included
CNC(=O)c1cnc(N2CCC3(CC2)CCN(Cc2ccc(C(C)(C)C)cc2)c2ccccc2O3)s1
7.31 to 9.30
FC(F)(F)c1cccc(CN2CCC3(CCN(c4ncc(Br)s4)CC3)Oc3ccccc32)c1
5.00 to 6.30
CC(C)(C)c1ccc(CN2CCC3(CCN(c4ncc(C(=O)NCCC(=O)O)s4)CC3)Oc3c(F)cccc32)cc1
7.31 to 9.30

Let's switch to this compound now.
Ask | Need pIC50 of CC(C)(C)c1ccc(CN2CCC3(CCN(c4ncc(C(=O)NCC(F)(F)F)s4)CC3)Oc3c(F)cccc32)cc1 , thanks.
Reply | 6.30 to 7.30
